test system: SF-539 CNS; assay: NCI tumour cell line growth inhibition, 48 h

[
  {
    "chemicalString": "CCCNC1=C2C[C@@H](C)C[C@@H](OC)[C@@H](OC(=O)CCCN)[C@H](C)/C=C(\\C)[C@@H](OC(N)=O)[C@H](OC)/C=C\\C=C(/C)C(=O)NC(=CC1=O)C2=O",
    "uom": "µM",
    "boundOperator": "=",
    "TGI": 39.9
  },
  {
    "chemicalString": "COC(=O)[C@H](CNC(=O)/C=C/c1ccc(OC(C)=O)c(OC(C)=O)c1)NC(=O)/C=C/c1ccc(OC(C)=O)c(OC(C)=O)c1",
    "uom": "µM",
    "boundOperator": ">",
    "TGI": 100
  },
  {
    "chemicalString": "C=C1CC[C@@]2(C)[C@@H]([C@@H]1C)[C@H]1CC[C@@H]3[C@@]4(C)CC[C@H](O)C(C)(C)[C@@H]4CC[C@@]3(C)[C@]1(C)C[C@@H]2O",
    "uom": "µM",
    "boundOperator": "=",
    "TGI": 6.29
  }
]

###

Reported TGI is given for each of the following compounds.
test system: SF-268 CNS; experiment: NCI tumour cell line growth inhibition, 48 h

[
  {
    "compound": "O=C(CCC(=O)Nc1ccccc1C(F)(F)F)N/N=C1\\C(=N\\NC(=O)CCC(=O)Nc2ccccc2C(F)(F)F)C(c2ccc3c(c2)OCO3)Oc2ccccc21 (centres undefined)",
    "testedTarget": "SF-268 CNS",
    "TGI": "18.9 µM"
  },
  {
    "compound": "CCOC(=O)Oc1cc2ccsc2c2c1c1ccccc1n2C(=O)OCC",
    "testedTarget": "SF-268 CNS",
    "TGI": "> 100 µM"
  },
  {
    "compound": "CNC(=O)c1cc(Oc2ccc3nc(NC(=O)Nc4ccc(CN5CCOCC5)c(C(F)(F)F)c4)sc3c2)ccn1",
    "testedTarget": "SF-268 CNS",
    "TGI": "14.6 µM"
  },
  {
    "compound": "CON(C)c1nc(N)c(C#N)c(C#N)c1C#N",
    "testedTarget": "SF-268 CNS",
    "TGI": "> 10 µM"
  },
  {
    "compound": "COC(CNC(=O)CNC(=O)c1ccc(C(F)(F)F)cc1)OC",
    "testedTarget": "SF-268 CNS",
    "TGI": "> 100 µM"
  },
  {
    "compound": "Cc1cc(OCc2nc(N)nc(N)c2-c2ccc(Cl)c(Cl)c2)ccc1[N+](=O)[O-]",
    "testedTarget": "SF-268 CNS",
    "TGI": "36.5 µM"
  },
  {
    "compound": "CCCNC1=C2C[C@@H](C)C[C@@H](OC)[C@@H](OC(=O)CCCN)[C@H](C)/C=C(\\C)[C@@H](OC(N)=O)[C@H](OC)/C=C\\C=C(/C)C(=O)NC(=CC1=O)C2=O",
    "testedTarget": "SF-268 CNS",
    "TGI": "36.7 µM"
  },
  {
    "compound": "COC(=O)C(C(=O)C(=O)Nc1ccc(C)cc1)c1nc2ccc([N+](=O)[O-])cc2[nH]c1=O (centres undefined)",
    "testedTarget": "SF-268 CNS",
    "TGI": "> 100 µM"
  },
  {
    "compound": "COc1c(C)c(C/C=C(\\C)CC/C=C(\\C)CC/C=C(\\C)CCC=C(C)C)c(OC)c(OC)c1OC",
    "testedTarget": "SF-268 CNS",
    "TGI": "> 100 µM"
  },
  {
    "compound": "NC(Cc1ccc(O)cn1)C(=O)NC(C(=O)O)c1ccccc1 (centres undefined)",
    "testedTarget": "SF-268 CNS",
    "TGI": "> 100 µM"
  },
  {
    "compound": "Cc1ccc2nc(NC(=O)C(=O)C(C(=O)c3ccc4ccccc4c3)C3OC(=O)c4ccccc43)sc2c1 (centres undefined)",
    "testedTarget": "SF-268 CNS",
    "TGI": "31.3 µM"
  },
  {
    "compound": "COC(=O)C1OC(O[C@H]2CC[C@]3(C)[C@H]4CC=C5[C@@H]6CC(C)(C)CC[C@]6(C(=O)OC)CC[C@@]5(C)[C@]4(C)CC[C@H]3C2(C)C)C(O)C(O)C1O (some centres undefined)",
    "testedTarget": "SF-268 CNS",
    "TGI": "39.3 µM"
  },
  {
    "compound": "c1ccc(CN2CCC(=NN3CCCCC3)CC2)cc1",
    "testedTarget": "SF-268 CNS",
    "TGI": "> 100 µM"
  },
  {
    "compound": "Cc1nc2ccccn2c1NC(=O)NN1C(=O)CSC1c1ccc(Cl)cc1 (centres undefined)",
    "testedTarget": "SF-268 CNS",
    "TGI": "> 100 µM"
  },
  {
    "compound": "Oc1ccc(-c2c3ccccc3c(-c3ccc(O)cc3)c3ccccc23)cc1",
    "testedTarget": "SF-268 CNS",
    "TGI": "> 100 µM"
  },
  {
    "compound": "O=C(O)c1cc(N=Nc2ccc([N+](=O)[O-])cc2)ccc1O",
    "testedTarget": "SF-268 CNS",
    "TGI": "> 100 µM"
  },
  {
    "compound": "COc1ccccc1C1C2=C(COC2=O)Oc2cc3c(cc21)OCO3 (centres undefined)",
    "testedTarget": "SF-268 CNS",
    "TGI": "85.8 µM"
  },
  {
    "compound": "COc1ccccc1-n1cnc2c1NC(C)(C)N=C2C(N)=O",
    "testedTarget": "SF-268 CNS",
    "TGI": "> 100 µM"
  },
  {
    "compound": "Nc1nc(=O)n(C2CC(O)C(CO)O2)cc1F (centres undefined)",
    "testedTarget": "SF-268 CNS",
    "TGI": "> 100 µM"
  }
]

# credit: PubChem BioAssay (NCI)
